B1: 1-phosphatidylinositol 4,5-bisphosphate phosphodiesterase gamma-2, residues 772 to 827; numbered along this chain, P16885 (parent)
chain: RTVKALYDYKAKRSDELSFCRGALIHNVSKEPGGWWKGDYGTRIQQYFPSNYVEDI

# Variants of: B1
# Experiment: abundance fitness (aPCA) (normalised: wild type 0, dead -1); higher = more abundant; growth selection in yeast, the domain comes from the species named
# Assay context: Homo sapiens
Assay endpoint: abundance fitness

INSERT INTO assay_data (variant_description, reported_measurement) VALUES
  ('C20S', 0.008),
  ('G38E', -0.595),
  ('F19R', -0.966),
  ('E16G', -0.354),
  ('Q45E', -0.819),
  ('E31K', -0.135),
  ('V53F', -0.803),
  ('K30E', -0.042),
  ('A23C', -0.092),
  ('S50A', 0.221),
  ('R1Y', 0.164),
  ('T42G', 0.078),
  ('E16S', -0.618),
  ('I44L', -0.111),
  ('G22D', -0.236),
  ('S18T', -0.187),
  ('L6A', -0.195),
  ('T2I', -0.111),
  ('L17V', -0.41),
  ('K37L', -0.276),
  ('K10V', 0.103),
  ('A5F', -0.895);

Cited source for all entries: the Human Domainome abundance scans (Beltran et al. 2025)
